Cited source for all entries: patent US20080058636A1

Recorded Human binding, one value per entry.
target: human collagen type I (acid soluble, extracted from placenta, Sigma C7774) (human) (UniProt P02452); assay: dried collagen assay, 5 uM each
Sequence (P02452 162-1218 limits assumed, chain 1 of 2): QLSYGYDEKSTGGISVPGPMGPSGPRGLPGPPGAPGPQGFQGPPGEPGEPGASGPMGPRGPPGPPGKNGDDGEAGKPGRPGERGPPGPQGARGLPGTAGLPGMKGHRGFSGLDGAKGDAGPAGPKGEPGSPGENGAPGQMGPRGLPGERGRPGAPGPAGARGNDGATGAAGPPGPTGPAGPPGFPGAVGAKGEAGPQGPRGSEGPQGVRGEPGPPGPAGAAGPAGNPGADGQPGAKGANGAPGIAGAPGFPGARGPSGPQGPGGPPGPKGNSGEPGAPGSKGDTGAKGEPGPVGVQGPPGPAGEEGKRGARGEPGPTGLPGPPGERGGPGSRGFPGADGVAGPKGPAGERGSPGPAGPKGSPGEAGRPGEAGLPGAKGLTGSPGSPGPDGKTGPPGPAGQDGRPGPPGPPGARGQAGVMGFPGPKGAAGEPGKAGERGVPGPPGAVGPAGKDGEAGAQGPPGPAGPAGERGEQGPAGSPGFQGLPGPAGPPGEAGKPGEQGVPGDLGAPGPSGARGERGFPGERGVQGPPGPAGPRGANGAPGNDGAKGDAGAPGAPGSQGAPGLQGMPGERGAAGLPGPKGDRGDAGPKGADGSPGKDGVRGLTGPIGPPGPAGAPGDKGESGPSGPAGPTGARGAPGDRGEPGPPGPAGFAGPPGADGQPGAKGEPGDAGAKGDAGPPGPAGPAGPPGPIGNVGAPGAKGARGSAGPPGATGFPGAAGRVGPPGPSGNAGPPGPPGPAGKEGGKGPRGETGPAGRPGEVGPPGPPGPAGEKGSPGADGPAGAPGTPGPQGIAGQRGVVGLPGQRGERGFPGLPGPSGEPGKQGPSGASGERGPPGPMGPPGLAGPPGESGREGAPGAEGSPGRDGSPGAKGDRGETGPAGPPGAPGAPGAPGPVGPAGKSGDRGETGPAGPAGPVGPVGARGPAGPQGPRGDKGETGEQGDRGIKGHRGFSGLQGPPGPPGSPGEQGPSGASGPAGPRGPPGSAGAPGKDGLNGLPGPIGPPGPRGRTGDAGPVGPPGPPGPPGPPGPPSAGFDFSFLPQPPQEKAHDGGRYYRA
Sequence (P08123 80-1119 limits assumed, chain 2 of 2, further chain): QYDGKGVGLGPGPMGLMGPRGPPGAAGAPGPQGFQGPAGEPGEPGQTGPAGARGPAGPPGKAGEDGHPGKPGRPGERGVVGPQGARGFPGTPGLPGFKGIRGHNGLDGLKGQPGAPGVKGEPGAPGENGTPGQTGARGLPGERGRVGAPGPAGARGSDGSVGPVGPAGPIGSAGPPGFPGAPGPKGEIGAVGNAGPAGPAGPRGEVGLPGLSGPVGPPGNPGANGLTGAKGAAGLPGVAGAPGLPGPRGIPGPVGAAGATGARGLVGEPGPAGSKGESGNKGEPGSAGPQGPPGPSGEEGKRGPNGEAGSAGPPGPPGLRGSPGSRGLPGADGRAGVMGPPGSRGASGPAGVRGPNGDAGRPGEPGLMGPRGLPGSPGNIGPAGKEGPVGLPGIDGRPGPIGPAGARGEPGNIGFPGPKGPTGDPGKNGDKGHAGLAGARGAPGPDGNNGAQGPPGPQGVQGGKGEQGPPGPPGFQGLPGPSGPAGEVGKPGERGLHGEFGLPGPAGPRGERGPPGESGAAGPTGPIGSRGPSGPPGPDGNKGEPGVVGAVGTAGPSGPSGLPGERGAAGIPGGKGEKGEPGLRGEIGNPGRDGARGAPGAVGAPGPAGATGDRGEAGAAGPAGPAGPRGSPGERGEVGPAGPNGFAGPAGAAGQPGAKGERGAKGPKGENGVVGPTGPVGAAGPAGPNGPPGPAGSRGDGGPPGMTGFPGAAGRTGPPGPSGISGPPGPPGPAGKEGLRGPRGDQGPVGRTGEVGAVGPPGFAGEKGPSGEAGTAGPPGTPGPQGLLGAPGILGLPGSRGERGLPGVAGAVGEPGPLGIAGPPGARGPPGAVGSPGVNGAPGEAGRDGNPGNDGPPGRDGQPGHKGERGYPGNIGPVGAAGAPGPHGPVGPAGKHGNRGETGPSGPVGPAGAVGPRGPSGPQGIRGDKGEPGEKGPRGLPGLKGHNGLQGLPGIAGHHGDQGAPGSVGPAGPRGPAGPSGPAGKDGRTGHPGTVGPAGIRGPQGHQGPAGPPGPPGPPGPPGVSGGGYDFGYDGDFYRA
Answer format: numeric, % implied, no suffix.

The reported Human binding of the binder KKGWHCYTYFPHHYCTYG [Compound ID 1015] was 29

The reported Human binding of the binder DWTCSSDEYTWHCNYE [Compound ID 836] was 13

The reported Human binding of the binder GKWHCYTKFPHHYCVYG [Compound ID 978] was 64

The reported Human binding of the binder GKWHCYTYFPYHYCLYG [Compound ID 964] was 88

The reported Human binding of the binder DWTCRGDEYTWHCNYE [Compound ID 822] was 47

The reported Human binding of the binder GQWHCTTRFPHAYCLYG [Compound ID 878] was 8

The reported Human binding of the binder KKAWHCYTYFPHHYCVYG [Compound ID 1016] was 48

The reported Human binding of the binder GKWHCTTYFPHHYCVYG [Compound ID 942] was 78

The reported Human binding of the binder GQWHCTTRYPHHYCLYG [Compound ID 859] was 47
